- target-desc: MMP-2 (Homo sapiens, UniProt P08253)
- Construct: made in house; host or cells: MMP-2-transfected p2AHT2 cells
- Sequence (P08253 110-660): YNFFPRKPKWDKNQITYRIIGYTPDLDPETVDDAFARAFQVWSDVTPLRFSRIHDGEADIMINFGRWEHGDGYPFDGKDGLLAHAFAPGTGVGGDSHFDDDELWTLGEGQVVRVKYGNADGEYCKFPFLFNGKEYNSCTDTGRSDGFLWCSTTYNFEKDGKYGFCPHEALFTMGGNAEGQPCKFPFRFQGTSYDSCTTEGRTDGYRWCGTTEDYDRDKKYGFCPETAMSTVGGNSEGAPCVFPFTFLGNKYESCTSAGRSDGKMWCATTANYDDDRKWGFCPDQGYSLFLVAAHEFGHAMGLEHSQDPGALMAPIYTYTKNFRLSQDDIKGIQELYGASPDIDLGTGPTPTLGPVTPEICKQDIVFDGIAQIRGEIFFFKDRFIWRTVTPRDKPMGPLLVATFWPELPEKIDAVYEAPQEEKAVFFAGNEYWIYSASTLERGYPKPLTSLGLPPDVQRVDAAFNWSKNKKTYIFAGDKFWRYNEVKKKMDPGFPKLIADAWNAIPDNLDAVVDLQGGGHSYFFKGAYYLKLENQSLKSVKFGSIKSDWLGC
- procedure-details: In vitro MMP inhibition, Ki determination (fluorogenic substrate II)
- Assay type: biochemical
- experimental-parameters: value outside parentheses; read-out: MMP-2 Ki
- Experimental: Several hydroxamic acids and salts thereof were analyzed in in vitro assays to determine their ability to inhibit the MMP cleavage of peptide substrates. […] and IC50 constants were calculated from the assayed hydroxamic acid-MMP interactions. […] The assays from which the Ki determinations were made were performed as follows. […] In the absence of MMP inhibitory activity, substrate II was cleaved at the Gly-Leu bond resulting in an increase of relative fluorescence. […]
experimental-readout: Ki (nM)
Dear colleague, please return just the value in nM, with no unit written.

Recorded Ki, per entry:
CCCCc1ccc(-c2cnc(N3CCN(S(=O)(=O)C4(C(=O)NO)CCOCC4)CC3)s2)cc1 :: 0.14
CCCCOc1ccc(N2CCN(S(=O)(=O)C3(C(=O)NO)CCN(c4ccc(Cl)nn4)CC3)CC2)cc1 :: 0.769

Please turn your attention to the following entry.
Query (compound): CCCCCc1ccc(C2CCN(S(=O)(=O)C3(C(=O)NO)CCOCC3)CC2)nc1 ; field requested: Ki 0.407

---

Measured pKi, listed per entry.
- target-desc: MMP-9 (Homo sapiens, UniProt P14780)
- Construct: made in house; host or cells: MMP-9-transfected HT1080 cells (spent media)
- Sequence (P14780 107-707 limits assumed): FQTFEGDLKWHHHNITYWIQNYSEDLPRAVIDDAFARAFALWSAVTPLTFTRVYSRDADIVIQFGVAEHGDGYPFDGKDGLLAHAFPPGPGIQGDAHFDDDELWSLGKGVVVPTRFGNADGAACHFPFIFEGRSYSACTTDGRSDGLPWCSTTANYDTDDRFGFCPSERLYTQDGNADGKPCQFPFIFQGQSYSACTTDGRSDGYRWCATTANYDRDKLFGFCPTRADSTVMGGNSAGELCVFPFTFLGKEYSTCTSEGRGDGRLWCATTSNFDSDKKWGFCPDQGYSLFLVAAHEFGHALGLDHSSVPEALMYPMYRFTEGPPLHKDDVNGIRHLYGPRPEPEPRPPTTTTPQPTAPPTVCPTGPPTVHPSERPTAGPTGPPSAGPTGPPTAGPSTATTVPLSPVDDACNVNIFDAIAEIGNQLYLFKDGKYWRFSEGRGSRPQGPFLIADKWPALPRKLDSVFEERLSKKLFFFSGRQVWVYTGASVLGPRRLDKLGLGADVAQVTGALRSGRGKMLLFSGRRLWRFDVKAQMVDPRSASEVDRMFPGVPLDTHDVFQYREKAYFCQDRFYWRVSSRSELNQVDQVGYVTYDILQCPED
- procedure-details: In vitro MMP inhibition, Ki determination (fluorogenic substrate II)
- Format: biochemical
- experimental-parameters: value not in parenthesis
Give only the number. pKi is defined as minus log10 of concentration in molar units.

Recorded pKi, per entry:
CCCCOc1ccc(N2CCN(S(=O)(=O)C3(C(=O)NO)CCN(C(=O)OCC(F)(F)F)CC3)CC2)cc1 [Example 115] :: 8.30
CCCCOc1ccc(N2CCN(S(=O)(=O)C3(C(=O)NO)CC3)CC2)cc1 [Example 63] :: 8.11
O=C(NO)C1(S(=O)(=O)N2CCN(c3ccc(-c4ccccc4)cc3)CC2)CCOCC1 [Example 76] :: 9.30
COCCN1CCC(C(=O)NO)(S(=O)(=O)N2CCN(c3ccccn3)CC2)CC1 [Example 176] :: 8.02
COCCN1CCC(C(=O)NO)(S(=O)(=O)N2CCN(c3ccccc3)CC2)CC1 [Example 195] :: 7.63

Query (molecule): O=C(NO)C1(S(=O)(=O)N2CCN(c3cnc(CCC(F)(F)C(F)(F)F)cn3)CC2)CCOCC1 [Example 210] ; field requested: pKi 6.85

What do you get for CCN1CCC(C(=O)NO)(S(=O)(=O)N2CCN(c3ccc(OCCCC(F)(F)F)cc3)CC2)CC1 [Example 78] ? 7.64

What do you get for CCCCCc1ccc(N2CCN(S(=O)(=O)C3(C(=O)NO)CCOCC3)CC2)nc1 [Example 167] ? 9.70
